target: UniProt Q96RI1
test_name: Human FXR (NR1H4) Assay (Gal4 promoter driven luciferase reporter, Indigo Bioscience kit)
conditions: Human FXR (NR1H4) Assay, potency ranges
Method: ASSAYS Human FXR (NR1H4) Assay Determination of a ligand mediated Gal4 promoter driven transactivation to quantify ligand binding mediated activation of FXR. […] The principle application of this reporter assay system is to quantify functional activity of human FXR. […] Luminescence intensity of the reaction is quantified using a plate-reading luminometer, Envision. […] Cells were incubated for additional 22 hours before luciferase activities were measured. […] Read time may be 0.5 second (500 mSec) per well.
Overview of recorded EC50 for various compounds
value_type: EC50

[[record]]
substance_smiles = "CC[C@H]1[C@@H](O)[C@@H]2[C@H](CC[C@]3(C)[C@@H]([C@H](C)CCOC(=O)NS(=O)(=O)CCC(=O)OC)CC[C@@H]23)[C@@]2(C)CC[C@@H](O)C[C@@H]12"
target = "UniProt Q96RI1"
value_type = "EC50"
assay_value = "1000 to 10000 nM"

[[record]]
substance_smiles = "CC[C@H]1[C@@H](O)[C@@H]2[C@H](CC[C@]3(C)[C@@H]([C@H](C)COC(=O)NS(=O)(=O)c4ccc(-n5cnnn5)cc4)CC[C@@H]23)[C@@]2(C)CC[C@@H](O)C[C@@H]12"
target = "UniProt Q96RI1"
value_type = "EC50"
assay_value = "100 to 1000 nM"

[[record]]
substance_smiles = "CC[C@H]1[C@@H](O)[C@@H]2[C@H](CC[C@]3(C)[C@@H]([C@H](C)CCCOC(=O)NS(=O)(=O)c4ccc(-c5ccccc5)cc4)CC[C@@H]23)[C@@]2(C)CC[C@@H](O)C[C@@H]12"
target = "UniProt Q96RI1"
value_type = "EC50"
assay_value = "1000 to 10000 nM"

[[record]]
substance_smiles = "CC[C@H]1[C@@H](O)[C@@H]2[C@H](CC[C@]3(C)[C@@H]([C@H](C)COC(=O)NS(=O)(=O)c4ccc(-n5cncn5)nc4)CC[C@@H]23)[C@@]2(C)CC[C@@H](O)C[C@@H]12"
target = "UniProt Q96RI1"
value_type = "EC50"
assay_value = "100 to 1000 nM"


* * *

target: human FXR (NR1H4) (Homo sapiens (Human), UniProt Q96RI1)
Sequence (Q96RI1 whole entry, the tested form may be a part): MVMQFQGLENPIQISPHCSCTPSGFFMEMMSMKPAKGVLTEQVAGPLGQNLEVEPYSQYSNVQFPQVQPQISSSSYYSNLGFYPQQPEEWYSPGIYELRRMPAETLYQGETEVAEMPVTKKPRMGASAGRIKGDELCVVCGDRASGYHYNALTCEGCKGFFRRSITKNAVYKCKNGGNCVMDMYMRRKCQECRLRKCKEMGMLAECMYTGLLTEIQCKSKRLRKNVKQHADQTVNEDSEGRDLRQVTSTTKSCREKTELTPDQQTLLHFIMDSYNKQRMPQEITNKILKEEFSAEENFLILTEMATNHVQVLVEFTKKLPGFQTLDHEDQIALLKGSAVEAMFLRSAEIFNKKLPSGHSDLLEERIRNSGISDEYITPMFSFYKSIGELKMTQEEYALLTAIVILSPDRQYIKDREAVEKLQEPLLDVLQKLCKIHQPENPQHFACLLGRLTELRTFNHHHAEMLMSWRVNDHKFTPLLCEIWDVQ
test_name: Human FXR (NR1H4) Assay (Gal4 promoter driven luciferase reporter, Indigo Bioscience kit);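 on Efficacy (%): 100% equals the efficacy of CDCA; efficacy normalized to CDCA set as 100%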
Assay type: cell-based
conditions: read-out: Efficacy (%)
Emax values for the compounds below.
value_type: Emax (%)

[[record]]
substance_smiles = "CC[C@H]1[C@@H](O)[C@@H]2[C@H](CC[C@]3(C)[C@@H]([C@H](C)CCOC(=O)NCC(C)C)CC[C@@H]23)[C@@]2(C)CC[C@@H](O)C[C@@H]12"
assay_value = 270

[[record]]
substance_smiles = "CC[C@H]1[C@@H](O)[C@@H]2[C@H](CC[C@]3(C)[C@@H]([C@H](C)COC(=O)NS(=O)(=O)c4ccc(-n5cccn5)cc4)CC[C@@H]23)[C@@]2(C)CC[C@@H](O)C[C@@H]12"
assay_value = 207

[[record]]
substance_smiles = "CC[C@H]1[C@@H](O)[C@@H]2[C@H](CC[C@]3(C)[C@@H]([C@H](C)COC(=O)NS(=O)(=O)c4ccc(-c5ccc(C(C)(C)C)cc5)s4)CC[C@@H]23)[C@@]2(C)CC[C@@H](O)C[C@@H]12"
assay_value = 182

[[record]]
substance_smiles = "CC[C@H]1[C@@H](O)[C@@H]2[C@H](CC[C@]3(C)[C@@H]([C@H](C)COC(=O)NS(=O)(=O)c4ccc(Oc5ccccc5)cc4)CC[C@@H]23)[C@@]2(C)CC[C@@H](O)C[C@@H]12"
assay_value = 207

